# Experiment: MAP studies G and H: PO dosing of diester IIa and monoester II′a in rats
# Type: in vivo, rat
# Protocol conditions: male, Sprague-Dawley, rat, plasma, po, 5 mg/kg, IVa following PO dosing of diester IIa
# Experimental: Compound IVa was administered in a polyethylene glycol 400 (PEG400)/ethanol (EtOH) solution (90/10, v/v) unless noted otherwise. Plasma and tissue samples were collected and stored at −20° C. until analysis. Male Sprague-Dawley rats (300-350 g, Hilltop Lab Animals, Inc., Scottdale, Pa. 15683) with cannulas implanted in the jugular vein and/or bile duct were used in the pharmacokinetic studies of compound IVa. Rats were fasted overnight in PO studies. […]

Molecule: COc1ncc(OC)c2c(C(=O)C(=O)N3CCN(C(=O)c4ccccc4)CC3)c[nH]c12 [IVa]
Unit of measure: µM·h
AUC: 4
